// provenance: paper PMC12586182

- MEASUREMENT TARGET: PKCδ (Homo sapiens)
- Construct: purchased Carna Biosciences
- Sequence (Q05655 whole entry): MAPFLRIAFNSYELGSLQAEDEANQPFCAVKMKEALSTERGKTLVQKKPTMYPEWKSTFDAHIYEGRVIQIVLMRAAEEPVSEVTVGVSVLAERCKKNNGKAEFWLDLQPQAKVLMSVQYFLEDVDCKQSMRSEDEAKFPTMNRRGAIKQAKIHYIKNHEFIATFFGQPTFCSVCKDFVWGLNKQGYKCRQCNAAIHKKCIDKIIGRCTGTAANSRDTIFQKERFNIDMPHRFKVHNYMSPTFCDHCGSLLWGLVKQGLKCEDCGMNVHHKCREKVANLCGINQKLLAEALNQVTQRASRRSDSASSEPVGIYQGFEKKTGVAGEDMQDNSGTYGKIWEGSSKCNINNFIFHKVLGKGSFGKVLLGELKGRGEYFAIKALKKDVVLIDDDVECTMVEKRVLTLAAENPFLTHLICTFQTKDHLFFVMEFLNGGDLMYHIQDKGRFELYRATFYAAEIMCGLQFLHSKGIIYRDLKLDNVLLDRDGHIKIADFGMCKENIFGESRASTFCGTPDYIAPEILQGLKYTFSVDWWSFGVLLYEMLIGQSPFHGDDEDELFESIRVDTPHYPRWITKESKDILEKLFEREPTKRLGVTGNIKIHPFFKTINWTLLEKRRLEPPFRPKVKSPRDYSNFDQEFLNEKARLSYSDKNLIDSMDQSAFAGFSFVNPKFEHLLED
- TEST DESCRIPTION: Kinase panel profiling at 1 µmol/L (mobility shift assay, Carna)
- Format: biochemical
- COND: 1 µmol/L of BTK inhibitor
MEASUREMENT TYPE: Percentage inhibition of kinase enzyme activity (%)
Form entry: value (%) — number only.

Would you please look over these solved cases?
CC#CC(=O)N1CCC[C@H]1c1nc(-c2ccc(C(=O)Nc3ccccn3)cc2)c2c(N)nccn12 :: -8.64
COc1ccc(F)cc1C(=O)NCc1ccc(-c2nn([C@@H](C)C(F)(F)F)c(N)c2C(N)=O)cc1 :: -3.98
C=CC(=O)N1CCC[C@@H](n2nc(-c3ccc(Oc4ccccc4)cc3)c3c(N)ncnc32)C1 :: 0.52

Below: the item to evaluate.
Any idea what Percentage inhibition of kinase enzyme activity came out for O=C(c1ccc(Oc2ccccc2)cc1Cl)c1c[nH]c2ncnc(N[C@@H]3CC[C@@H](CO)OC3)c12 on PKCδ (Homo sapiens)?
6.96

====

- MEASUREMENT TARGET: IKKβ (Homo sapiens)
- Construct: purchased Carna Biosciences
- Sequence (O14920 1-756): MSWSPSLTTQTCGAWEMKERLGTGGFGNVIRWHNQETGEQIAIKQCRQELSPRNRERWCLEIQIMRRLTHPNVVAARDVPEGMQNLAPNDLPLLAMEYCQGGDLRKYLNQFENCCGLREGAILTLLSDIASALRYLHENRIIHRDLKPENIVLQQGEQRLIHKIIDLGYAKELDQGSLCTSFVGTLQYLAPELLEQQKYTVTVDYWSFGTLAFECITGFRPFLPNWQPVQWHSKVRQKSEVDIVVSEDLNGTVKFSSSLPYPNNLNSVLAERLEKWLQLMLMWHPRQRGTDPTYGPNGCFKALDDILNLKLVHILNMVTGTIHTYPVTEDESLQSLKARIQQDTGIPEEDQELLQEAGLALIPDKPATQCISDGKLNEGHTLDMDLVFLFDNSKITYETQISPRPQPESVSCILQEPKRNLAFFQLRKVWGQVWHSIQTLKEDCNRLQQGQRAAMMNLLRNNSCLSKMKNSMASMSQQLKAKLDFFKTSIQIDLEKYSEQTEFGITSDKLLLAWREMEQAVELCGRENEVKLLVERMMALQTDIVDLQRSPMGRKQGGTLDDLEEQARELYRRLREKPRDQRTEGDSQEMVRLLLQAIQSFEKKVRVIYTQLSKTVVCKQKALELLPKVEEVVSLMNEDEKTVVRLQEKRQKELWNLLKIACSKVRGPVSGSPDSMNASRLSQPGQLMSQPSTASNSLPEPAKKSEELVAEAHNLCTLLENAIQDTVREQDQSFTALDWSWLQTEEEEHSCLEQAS
- TEST DESCRIPTION: Kinase panel profiling at 1 µmol/L (mobility shift assay, Carna)
- Assay type: biochemical
- COND: 1 µmol/L of BTK inhibitor
MEASUREMENT TYPE: Percentage inhibition of kinase enzyme activity

COc1ccc(F)cc1C(=O)NCc1ccc(-c2nn([C@@H](C)C(F)(F)F)c(N)c2C(N)=O)cc1 [pirtobrutinib] :: 0.58%
C=CC(=O)N1CCC[C@@H](n2nc(-c3ccc(Oc4ccccc4)cc3)c3c(N)ncnc32)C1 [ibrutinib] :: -0.35%
CC#CC(=O)N1CCC[C@H]1c1nc(-c2ccc(C(=O)Nc3ccccn3)cc2)c2c(N)nccn12 [acalabrutinib] :: -6.98%

Below: the item to evaluate.
I'd like to know its Percentage inhibition of kinase enzyme activity. The compound in question is O=C(c1ccc(Oc2ccccc2)cc1Cl)c1c[nH]c2ncnc(N[C@@H]3CC[C@@H](CO)OC3)c12 [nemtabrutinib]
-1.18%

====

- MEASUREMENT TARGET: LYNb (Homo sapiens)
- Construct: purchased Carna Biosciences
- Sequence (P07948 1-491 isoform P07948-2): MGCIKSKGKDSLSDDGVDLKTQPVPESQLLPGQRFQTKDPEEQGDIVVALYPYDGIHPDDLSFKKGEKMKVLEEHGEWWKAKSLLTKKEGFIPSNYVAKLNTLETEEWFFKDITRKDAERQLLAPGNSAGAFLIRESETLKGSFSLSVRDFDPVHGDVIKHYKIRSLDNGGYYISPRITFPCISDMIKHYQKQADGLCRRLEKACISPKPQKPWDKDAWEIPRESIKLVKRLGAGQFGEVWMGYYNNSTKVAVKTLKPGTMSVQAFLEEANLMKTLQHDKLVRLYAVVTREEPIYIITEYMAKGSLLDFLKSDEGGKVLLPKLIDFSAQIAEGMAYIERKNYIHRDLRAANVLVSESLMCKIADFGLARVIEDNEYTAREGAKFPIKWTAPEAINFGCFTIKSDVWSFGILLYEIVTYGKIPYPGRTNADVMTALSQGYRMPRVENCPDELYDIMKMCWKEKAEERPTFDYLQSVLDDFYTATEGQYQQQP
- TEST DESCRIPTION: Kinase panel profiling at 1 µmol/L (mobility shift assay, Carna)
- Type: biochemical
- COND: 1 µmol/L of BTK inhibitor
Entries and their Percentage inhibition of kinase enzyme activity values follow.
Form entry: value (%) — number only.

Would you please look over these solved cases?
O=C(c1ccc(Oc2ccccc2)cc1Cl)c1c[nH]c2ncnc(N[C@@H]3CC[C@@H](CO)OC3)c12 :: 66.12
CC#CC(=O)N1CCC[C@H]1c1nc(-c2ccc(C(=O)Nc3ccccn3)cc2)c2c(N)nccn12 :: -1.97

Any idea what Percentage inhibition of kinase enzyme activity came out for C=CC(=O)N1CCC[C@@H](n2nc(-c3ccc(Oc4ccccc4)cc3)c3c(N)ncnc32)C1 on LYNb (Homo sapiens)?
100.13

Would you kindly repeat that for COc1ccc(F)cc1C(=O)NCc1ccc(-c2nn([C@@H](C)C(F)(F)F)c(N)c2C(N)=O)cc1 ?
26.06

====

- MEASUREMENT TARGET: CK1ε (Homo sapiens)
- Construct: purchased Carna Biosciences
- Sequence (P49674 whole entry): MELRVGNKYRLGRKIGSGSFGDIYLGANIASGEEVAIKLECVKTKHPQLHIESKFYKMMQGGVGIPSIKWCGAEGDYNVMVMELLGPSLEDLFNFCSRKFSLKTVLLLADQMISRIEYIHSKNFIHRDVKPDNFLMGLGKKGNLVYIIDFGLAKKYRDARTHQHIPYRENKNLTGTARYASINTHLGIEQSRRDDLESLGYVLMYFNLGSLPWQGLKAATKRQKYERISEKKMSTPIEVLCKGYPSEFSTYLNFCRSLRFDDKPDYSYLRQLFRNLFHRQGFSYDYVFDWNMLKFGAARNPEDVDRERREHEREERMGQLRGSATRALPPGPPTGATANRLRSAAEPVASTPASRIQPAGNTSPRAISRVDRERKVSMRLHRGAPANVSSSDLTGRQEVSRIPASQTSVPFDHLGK
- TEST DESCRIPTION: Kinase panel profiling at 1 µmol/L (mobility shift assay, Carna)
- Type: biochemical
- COND: 1 µmol/L of BTK inhibitor
Entries and their Percentage inhibition of kinase enzyme activity values follow.
Form entry: value (%) — number only.

Would you please look over these solved cases?
C=CC(=O)N1CCC[C@@H](n2nc(-c3ccc(Oc4ccccc4)cc3)c3c(N)ncnc32)C1 [ibrutinib] :: 49.55
CC#CC(=O)N1CCC[C@H]1c1nc(-c2ccc(C(=O)Nc3ccccn3)cc2)c2c(N)nccn12 [acalabrutinib] :: -10.49
O=C(c1ccc(Oc2ccccc2)cc1Cl)c1c[nH]c2ncnc(N[C@@H]3CC[C@@H](CO)OC3)c12 [nemtabrutinib] :: 95.45

Below: the item to evaluate.
I'd like to know its Percentage inhibition of kinase enzyme activity. The molecule in question is COc1ccc(F)cc1C(=O)NCc1ccc(-c2nn([C@@H](C)C(F)(F)F)c(N)c2C(N)=O)cc1 [pirtobrutinib]
15.87

====

- MEASUREMENT TARGET: MEK1 (Homo sapiens, UniProt Q02750)
- Construct: purchased Carna Biosciences, Inc. 07–41
- Sequence (Q02750 whole entry): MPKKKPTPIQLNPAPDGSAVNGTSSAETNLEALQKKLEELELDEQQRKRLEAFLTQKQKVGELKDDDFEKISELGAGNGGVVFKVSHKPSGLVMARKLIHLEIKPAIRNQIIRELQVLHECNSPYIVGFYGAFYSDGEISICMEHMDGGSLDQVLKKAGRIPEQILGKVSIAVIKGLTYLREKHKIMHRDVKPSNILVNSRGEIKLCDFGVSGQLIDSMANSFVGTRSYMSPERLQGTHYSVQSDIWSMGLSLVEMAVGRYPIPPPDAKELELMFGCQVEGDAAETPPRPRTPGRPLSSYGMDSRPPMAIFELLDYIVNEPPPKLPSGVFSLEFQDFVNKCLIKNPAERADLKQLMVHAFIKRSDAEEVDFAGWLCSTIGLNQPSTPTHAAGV
- TEST DESCRIPTION: Kinase enzyme activity assay (ELISA, in-house)
- Type: biochemical
- COND: 1 mmol/L ATP; read-out: IC50, MEK1
MEASUREMENT TYPE: IC50 (nM)
Form entry: value (nM) — number only.

I'd like to know its IC50. The compound in question is O=C(c1ccc(Oc2ccccc2)cc1Cl)c1c[nH]c2ncnc(N[C@@H]3CC[C@@H](CO)OC3)c12
456

====

Entries and their Percentage inhibition of kinase enzyme activity values follow.
- MEASUREMENT TARGET: MARK3 (Homo sapiens)
- Construct: purchased Carna Biosciences
- Sequence (P27448 whole entry): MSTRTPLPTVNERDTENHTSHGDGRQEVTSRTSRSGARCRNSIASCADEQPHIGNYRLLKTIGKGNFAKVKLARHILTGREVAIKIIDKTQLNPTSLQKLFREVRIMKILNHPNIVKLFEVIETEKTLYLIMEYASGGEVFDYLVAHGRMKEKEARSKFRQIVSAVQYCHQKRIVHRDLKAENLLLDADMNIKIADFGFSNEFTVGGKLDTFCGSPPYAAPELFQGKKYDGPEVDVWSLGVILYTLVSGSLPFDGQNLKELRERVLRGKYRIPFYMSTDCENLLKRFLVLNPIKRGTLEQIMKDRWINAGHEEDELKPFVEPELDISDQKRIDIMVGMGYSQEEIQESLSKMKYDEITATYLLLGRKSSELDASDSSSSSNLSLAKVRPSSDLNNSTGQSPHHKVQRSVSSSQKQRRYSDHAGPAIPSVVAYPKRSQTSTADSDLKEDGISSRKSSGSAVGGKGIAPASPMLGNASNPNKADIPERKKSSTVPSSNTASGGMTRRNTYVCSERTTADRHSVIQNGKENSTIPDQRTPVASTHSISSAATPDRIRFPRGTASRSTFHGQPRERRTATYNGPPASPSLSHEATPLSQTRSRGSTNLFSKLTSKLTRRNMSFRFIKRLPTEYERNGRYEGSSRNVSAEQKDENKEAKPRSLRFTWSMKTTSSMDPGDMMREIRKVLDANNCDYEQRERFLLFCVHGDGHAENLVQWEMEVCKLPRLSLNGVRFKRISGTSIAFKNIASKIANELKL
- TEST DESCRIPTION: Kinase panel profiling at 1 µmol/L (mobility shift assay, Carna)
- Format: biochemical
- COND: 1 µmol/L of BTK inhibitor
Param answer (str): number followed by unit.

Would you please look over these solved cases?
COc1ccc(F)cc1C(=O)NCc1ccc(-c2nn([C@@H](C)C(F)(F)F)c(N)c2C(N)=O)cc1 :: 5.64%
O=C(c1ccc(Oc2ccccc2)cc1Cl)c1c[nH]c2ncnc(N[C@@H]3CC[C@@H](CO)OC3)c12 :: 10.97%

I'd like to know its Percentage inhibition of kinase enzyme activity. The compound in question is C=CC(=O)N1CCC[C@@H](n2nc(-c3ccc(Oc4ccccc4)cc3)c3c(N)ncnc32)C1
-5.88%

Would you kindly repeat that for CC#CC(=O)N1CCC[C@H]1c1nc(-c2ccc(C(=O)Nc3ccccn3)cc2)c2c(N)nccn12 ?
-2.57%

====

Entries and their Percentage inhibition of kinase enzyme activity values follow.
- MEASUREMENT TARGET: NDR1 (Homo sapiens)
- Construct: purchased Carna Biosciences
- Sequence (Q15208 whole entry): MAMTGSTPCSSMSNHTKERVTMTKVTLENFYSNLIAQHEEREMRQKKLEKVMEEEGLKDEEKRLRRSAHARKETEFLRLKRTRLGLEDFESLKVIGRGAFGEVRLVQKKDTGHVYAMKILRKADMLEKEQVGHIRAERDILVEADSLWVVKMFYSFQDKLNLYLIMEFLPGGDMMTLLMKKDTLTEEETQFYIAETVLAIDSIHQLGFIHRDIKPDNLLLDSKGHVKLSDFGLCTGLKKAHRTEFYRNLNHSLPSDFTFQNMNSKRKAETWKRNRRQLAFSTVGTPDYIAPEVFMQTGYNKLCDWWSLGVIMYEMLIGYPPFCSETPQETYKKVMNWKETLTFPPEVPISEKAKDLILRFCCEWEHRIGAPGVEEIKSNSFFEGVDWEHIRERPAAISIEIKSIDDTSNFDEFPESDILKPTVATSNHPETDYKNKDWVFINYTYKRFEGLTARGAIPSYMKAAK
- TEST DESCRIPTION: Kinase panel profiling at 1 µmol/L (mobility shift assay, Carna)
- Assay type: biochemical
- COND: 1 µmol/L of BTK inhibitor
Form entry: value (%) — number only.

C=CC(=O)N1CCC[C@@H](n2nc(-c3ccc(Oc4ccccc4)cc3)c3c(N)ncnc32)C1 :: 2.65

Any idea what Percentage inhibition of kinase enzyme activity came out for O=C(c1ccc(Oc2ccccc2)cc1Cl)c1c[nH]c2ncnc(N[C@@H]3CC[C@@H](CO)OC3)c12 on NDR1 (Homo sapiens)?
3.34

Would you kindly repeat that for CC#CC(=O)N1CCC[C@H]1c1nc(-c2ccc(C(=O)Nc3ccccn3)cc2)c2c(N)nccn12 ?
-6.32

Would you kindly repeat that for COc1ccc(F)cc1C(=O)NCc1ccc(-c2nn([C@@H](C)C(F)(F)F)c(N)c2C(N)=O)cc1 ?
1.20

====

- System: MSTO-211H
- TEST DESCRIPTION: Cell viability assay (ATPlite)
- Type: cell-based
- COND: Homo sapiens; MSTO-211H cell line, 72 hours incubation
MEASUREMENT TYPE: IC50 (µM)
Form entry: value (µM) — number only.

I'd like to know its IC50. The compound in question is O=C(c1ccc(Oc2ccccc2)cc1Cl)c1c[nH]c2ncnc(N[C@@H]3CC[C@@H](CO)OC3)c12
3.86
